Target of assay: T1, biotinylated CD3 epsilon:delta heterodimer protein (Amsbio AMS.CDD-H52WO) (Homo sapiens (Human), UniProt P07766 23-126; P04234 22-105)
T1 construct: also called CD3 heterodimer
Assay protocol: BLI (Octet), CD3 on SA sensor, Fab analyte;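 note: biolayer interferometry with biotinylated CD3 epsilon:delta captured on streptavidin sensors, Fab analyte at several concentrations up to 300 nM, 100 s association then 300 s dissociation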
Quantity name: koff (s⁻¹)
Expressed in s⁻¹, but write only the number.

{"columns": ["Binder", "Endpoint unit", "koff"],
 "data": [
  ["huSP34.9.6 Fab-HF (Fab, V domains shown, also called HC9+LC6) VH: EVQLVESGGGLVQPGGSLRLSCAASGFTFSDYAMNWVRQAPGKGLEWVGRTRSKYNSYATYYAASVKGRFTISRDDSKNSLYLQMNSLKTEDTAVYYCVRHGNFGNSYVSWFAVWGQGTLVTVSS VL: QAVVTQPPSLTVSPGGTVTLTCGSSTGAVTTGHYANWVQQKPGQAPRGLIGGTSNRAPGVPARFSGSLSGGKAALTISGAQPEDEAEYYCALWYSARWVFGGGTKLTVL", "s⁻¹", 0.169],
  ["huSP34.8.2 Fab-HF (Fab, V domains shown, also called HC8+LC2) VH: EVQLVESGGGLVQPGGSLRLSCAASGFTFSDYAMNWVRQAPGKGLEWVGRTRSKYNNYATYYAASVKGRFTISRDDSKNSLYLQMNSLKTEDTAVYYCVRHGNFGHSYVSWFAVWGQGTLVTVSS VL: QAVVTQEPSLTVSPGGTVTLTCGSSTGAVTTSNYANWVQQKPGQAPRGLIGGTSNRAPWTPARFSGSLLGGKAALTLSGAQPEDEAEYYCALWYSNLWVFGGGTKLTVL", "s⁻¹", 0.0982]
]}

Kindly review the next binder as well.
Quote koff reported for huSP34.7.1 Fab-HF (Fab, V domains shown, also called HC7+LC1) VH: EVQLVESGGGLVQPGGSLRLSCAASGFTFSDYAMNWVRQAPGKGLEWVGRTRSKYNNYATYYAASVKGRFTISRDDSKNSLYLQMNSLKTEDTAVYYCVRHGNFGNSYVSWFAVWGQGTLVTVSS VL: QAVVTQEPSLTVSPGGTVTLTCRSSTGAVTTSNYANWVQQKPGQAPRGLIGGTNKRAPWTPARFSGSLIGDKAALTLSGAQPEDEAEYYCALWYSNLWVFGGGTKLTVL please.
0.0855

// provenance: patent US20230056252A1
